Experiment: NCI Yeast Anticancer Drug Screen. Data for the rad50 strain (AID 155);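 further: 0% = growth of vehicle-only cultures of the same strain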
Details: S. cerevisiae rad50 strain growth inhibition; at 50.0 µM; stronger effect = higher value
About 79,000 compounds went through this panel and 15% of them were active in at least one assay; those are over-represented in the sample as a whole.
EXPERIMENTAL_READOUT: growth inhibition (%)
Your answer should be a plain number; it is taken to be in %.

Using the record for NC(=O)N/N=C\CC(O)(C(F)(F)Cl)C(F)(F)Cl , report its growth inhibition.
-33.9

Using the record for CCCCCCCCOCCS(=O)(=O)O , report its growth inhibition.
13.4

Using the record for Nc1ccccc1N1C(=O)C(Cl)=C(Cl)C1=O , report its growth inhibition.
39.5

Using the record for Cc1cccc(C)c1NC(=O)C(Cl)(Cl)Sc1ccc(Cl)cc1Cl , report its growth inhibition.
0.3

Using the record for CC(C)(C)C1CCC2c3c([nH]c4ncccc34)C3C(=O)N(c4ccccc4)C(=O)C3C2C1 (stereo unspecified) , report its growth inhibition.
20.4

Using the record for CCOC(=O)C1(C(=O)OCC)C2C=CC(C2)C1C(=O)OC (stereo unspecified) , report its growth inhibition.
-0.65

Using the record for Cc1cc[n+](C(C)CCC(C)[n+]2ccc(C)cc2)cc1 (stereo unspecified) , report its growth inhibition.
25.2

Using the record for CC1(C)C=C(S(=O)(=O)c2ccccc2)Oc2ccccc2O1 , report its growth inhibition.
15.3

Using the record for N#C/C(=N\NC(=O)c1ccccc1Cl)c1ccccc1Cl , report its growth inhibition.
89.5

Using the record for O=C(/C=C(\N=P(c1ccccc1)(c1ccccc1)c1ccccc1)C(F)(F)C(F)(F)C(F)(F)C(F)(F)C(F)(F)C(F)(F)C(F)(F)F)c1ccccc1 , report its growth inhibition.
-16.1

Using the record for C=C(C)C(CCC)(C(=O)OCC)C(=O)OCC , report its growth inhibition.
3.05

Using the record for CS/C(=N\S(=O)(=O)c1cc(C)c(Cl)cc1Cl)NNc1cnc2ccccc2n1 , report its growth inhibition.
-12.1

Using the record for O=C1CN(c2cccc(C(F)(F)F)c2)C(=O)CN1CCN1CC(=O)N(c2cccc(C(F)(F)F)c2)CC1=O , report its growth inhibition.
-30.6

Using the record for CSc1cc(Br)ccc1-n1c(C(=O)c2ccccc2)c(SC)n(-c2ccccc2)c1=O , report its growth inhibition.
-0.05

Using the record for NC1C([O-])OC(CO)C(O)C1O.O=C1OC(C(O)CO)C([O-])=C1[OH2+].[Cu+2] (stereo unspecified) , report its growth inhibition.
-0.4

Using the record for CC(O)C(C)(C)O (stereo unspecified) , report its growth inhibition.
12.3

Using the record for N#CC(C(=O)O)=C1CCCCCC1 , report its growth inhibition.
2.4

Using the record for CC1CN=C(N(C(=O)Nc2ccc(Cl)cc2)c2cccc(Cl)c2)S1 (stereo unspecified) , report its growth inhibition.
-30.9

Using the record for O=[N+]([O-])c1ccccc1C1SCc2nc3ccccc3n21 (stereo unspecified) , report its growth inhibition.
25.2

Using the record for COc1ccc(/C=N/NC(=O)NCCCN(C)C)cc1 , report its growth inhibition.
3.3

Using the record for O=C(O)c1ccc(C2CCCCC2O)cc1 (stereo unspecified) , report its growth inhibition.
2.05

Using the record for C=CCN1C(=O)CC2[C@@H]3CCc4cc(O)ccc4C3CC[C@]2(C)C1=O (stereo partly specified) , report its growth inhibition.
-0.65

Using the record for CCCCCCCCCCCCCCCCOc1ccc(-c2cc(=O)n(C)n2C)cc1OC , report its growth inhibition.
-14.1

Using the record for CN(C)c1ccc(/C=N\NC(=S)NCCCN2CCN(CCCNC(=S)N/N=C/c3ccc(N(C)C)cc3)CC2)cc1 , report its growth inhibition.
36.1

Using the record for CC(=O)Nc1ccc(S(=O)(=O)NCCC(=O)O)cc1 , report its growth inhibition.
-9.7

Using the record for COC(=O)C(NC(=O)c1ccccc1)C(C)=O (stereo unspecified) , report its growth inhibition.
9.5

Using the record for O=C(NN1C(=O)c2cccc3cccc(c23)C1=O)NN1C(=O)c2cccc3cccc(c23)C1=O , report its growth inhibition.
98.2

Using the record for CN(C)CCC1(C2=CCCC2)CC/C(=C\c2ccccc2)C1=O (stereo unspecified) , report its growth inhibition.
16.9

Using the record for OCCCNc1ncnc2[nH]ncc12 , report its growth inhibition.
7.7

Using the record for NC(N)=N/N=C(\c1nc2ccc([N+](=O)[O-])cc2[nH]c1=O)C(O)c1ccc([N+](=O)[O-])cc1 (stereo unspecified) , report its growth inhibition.
-16

Using the record for COc1ccc(/C=N\N2CN(C(CC(N)=O)C(=O)O)C(O)(CCl)N=C2N)cc1OC (stereo unspecified) , report its growth inhibition.
9.1

Using the record for CCCOC(=O)c1cccnc1C(=O)OCCC , report its growth inhibition.
-0.2

Using the record for CCC(C)N(C(=O)C(C)Br)C(C)CC (stereo unspecified) , report its growth inhibition.
2.95

Using the record for O=C1c2ccccc2C2(O)Nc3cc(O)ccc3C12O (stereo unspecified) , report its growth inhibition.
-24.6

Using the record for C[n+]1cccc(C(=O)O)c1 , report its growth inhibition.
5.25

Using the record for COc1cc2c[n+]3ccc4ccccc4c3c(N)c2cc1OC , report its growth inhibition.
16

Using the record for CCN(CC)C(=O)c1ccc[n+](Cc2ccc(Cl)c(Cl)c2)c1 , report its growth inhibition.
3.15

Using the record for C/C=N\N1C(=O)c2ccccc2C1=O , report its growth inhibition.
11.5

Using the record for COc1cc(O)c2c(=O)c(O)c(-c3ccc(O)c(O)c3)oc2c1 , report its growth inhibition.
3.15

Using the record for COC(=O)N1CCc2c(nc(N(C)CCO)[nH]c2=O)C1 , report its growth inhibition.
-0.55

Using the record for CC(C)(C)OC(=O)C1CCC/C1=N/Nc1ccc([N+](=O)[O-])cc1[N+](=O)[O-] (stereo unspecified) , report its growth inhibition.
-38.3

Using the record for C1CCN(CCC2CCCCN2)CC1 (stereo unspecified) , report its growth inhibition.
-23.4

Using the record for COC(=O)c1cc([N+](=O)[O-])cc2ccccc12 , report its growth inhibition.
35.8

Using the record for C[C@]12CCC(=O)C(O)=C1CCC2=O , report its growth inhibition.
2.6

Using the record for C[C@@H]1OC2(O)[C@H]3CCCN3S(=O)(=O)CCN2C1=O (stereo partly specified) , report its growth inhibition.
30.5

Using the record for CCOC(=O)Cn1/c(=N/N=C(\C)c2ccc([N+](=O)[O-])o2)sc2cc(Cl)ccc21 , report its growth inhibition.
-5.75

====

Assay: NCI Yeast Anticancer Drug Screen. Data for the mlh1 rad18 strain (AID 175)
Details: S. cerevisiae mlh1 rad18 strain growth inhibition; at 50.0 µM; stronger effect = higher value
The panel holds about 79,000 compounds, 15% with a hit somewhere; the sample as a whole holds those more often.
Assignment: determine reported growth inhibition for the given compounds.
Your answer should be a plain number; it is taken to be in %.

Using the record for C/C=N\N1C(=O)c2ccccc2C1=O , report its growth inhibition.
14.8

Using the record for COC(=O)c1ccccc1NC(=O)/C(=N\NC(C)(C)C)C(C#N)c1nc(-c2ccc([N+](=O)[O-])cc2)cs1 (centres undefined) , report its growth inhibition.
-8.3

Using the record for CCOC(=O)CC1=Nc2ccccc2SC1 , report its growth inhibition.
-28.6

Using the record for CCC(=O)CCN(CC)CC , report its growth inhibition.
-40.4

Using the record for CCS(=O)(=O)Nc1ccc(NS(=O)(=O)CC)cc1 , report its growth inhibition.
25.4

Using the record for O=C(Nc1ccc(Cl)c(Cl)c1)Oc1ccc(Cl)cc1C(=O)Nc1ccccc1 , report its growth inhibition.
37.6

Using the record for Cc1cc(Cl)cc(CN(Cc2ccccc2)Cc2cc(Cl)cc(C)c2O)c1O , report its growth inhibition.
-6.8

Using the record for Cc1ccc(C(N)=Nc2ccccc2)cc1 , report its growth inhibition.
23.4

Using the record for COC(=O)C1(CC(=O)/C=C/c2ccccc2)NC(=S)NC(=O)C1C#N (centres undefined) , report its growth inhibition.
9.9

Using the record for O=c1c(C(c2ccc(Cl)cc2)c2c(O)c3ccccc3n(-c3ccccc3)c2=O)c(O)c2ccccc2n1-c1ccccc1 , report its growth inhibition.
-3.4

Using the record for O=C1NC(=O)C2C3CCC(C3)C12 (centres undefined) , report its growth inhibition.
0.4

Using the record for CCCCCC1OCC(C)(C)CO1 , report its growth inhibition.
-9.6

Using the record for O=[N+]([O-])c1cc(Br)ccc1N1CCCC1 , report its growth inhibition.
-6.85

Using the record for Cc1cccc(C(=O)O)c1N , report its growth inhibition.
13.4

Using the record for C[N+](C)(C)CC(=O)NN , report its growth inhibition.
38.6

Using the record for Cc1cccc(-c2cc(=O)c3cccnc3[nH]2)c1 , report its growth inhibition.
1.25

Using the record for N#Cc1c(N2CCCC2)ncn(Cc2ccccc2)c1=O , report its growth inhibition.
4.7

Using the record for Cc1ccc(NC(=O)CC2C(=O)Nc3ccccc3S2(=O)=O)c(C)c1 (centres undefined) , report its growth inhibition.
-10.6

Using the record for CCOC(=O)C(NC(=O)c1ccccc1)(Nc1ccc(S(=O)(=O)Nc2ncccn2)cc1)C(F)(F)F (centres undefined) , report its growth inhibition.
16.9

Using the record for C=CCOC(=O)NC(CCC(=O)O)C(=O)O (centres undefined) , report its growth inhibition.
21

Using the record for COc1ccc(Cc2ccccc2)cc1 , report its growth inhibition.
6.65

Using the record for C[N+]([O-])(CCO)Cc1ccccc1 (centres undefined) , report its growth inhibition.
-14.3

Using the record for O=P(O)(OCCOc1ccccc1)OCCOc1ccccc1 , report its growth inhibition.
-12.8

Using the record for COC(=O)[C@H]1[C@H]2C[C@@H]3c4[nH]c5cc(OC)ccc5c4CCN3C[C@H]2C[C@@H](OC(=O)c2cc(OC)c(OC)c(OC)c2)[C@@H]1OC , report its growth inhibition.
12.8
